pIC50: −log10 of the molar value.
Below are pIC50 measurements against IRAK4 (Homo sapiens (Human)) drawn from the literature.

{"Compound": "N[C@H](c1cccc(-c2ccc3cnn(-c4cccc(CF)n4)c3c2)n1)C1CC(F)(F)C1", "pIC50": "≥ 7.00"}
{"Compound": "Cn1cc(-c2cccc(-c3ncc(-c4ccn(C)n4)c(NCC4(O)CCNCC4(C)C)n3)c2)cn1 (stereo not shown)", "pIC50": "6.00 to 7.00"}
{"Compound": "COCCOc1cc(-c2cccc([C@@H](N)C(F)CCO)n2)cc2c1cnn2-c1cccc(CO)n1 (stereo partly shown)", "pIC50": "> 7.00"}

Below: the item to evaluate.
# input Query: pIC50; subject: CC1(C(N)=O)CCc2sc3ncnc(O[C@H]4CC[C@H](N5CCOCC5)CC4)c3c2C1 (stereo partly shown)
# output > 5.30

----------
Below are IC50 measurements against IRAK4 (Homo sapiens (Human)) drawn from the literature.

{"Compound": "O=C(Nc1nc(CCCCCCN2CCCCC2)cn1-c1ccccc1)c1cccc(-c2cccnc2)c1", "Assayed target": "IRAK4 (Homo sapiens (Human))", "Result": "< 50 nM"}
{"Compound": "Cn1cc(-c2cccc(-c3ncc(-c4cnn(C)c4)c(N[C@H]4CCC[C@@H](O)C4)n3)c2)cn1 (racemic)", "Assayed target": "IRAK4 (Homo sapiens (Human))", "Result": "< 100 nM"}
{"Compound": "CSCC(N)c1cccc(-c2ccc3cnn(-c4cccc(CO)n4)c3c2)n1 (centres unmarked)", "Assayed target": "IRAK4 (Homo sapiens (Human))", "Result": "< 100 nM"}
{"Compound": "Cc1cccc(-c2ncc3ccc(-c4cccc(C(C)N)n4)cn23)n1 (centres unmarked)", "Assayed target": "IRAK4 (Homo sapiens (Human))", "Result": "< 100 nM"}

Below: the item to evaluate.
# input Query: IC50; subject: CCOc1cc(-c2cccc([C@@H](N)C3CC(F)(F)C3)n2)cc2c1cnn2-c1cccc(CO)n1
# output ≤ 100 nM

----------
Below are IC50 measurements against IRAK4 (Homo sapiens (Human), UniProt Q9NWZ3) drawn from the literature.

Check out these entries, answers already filled in.
{"Compound": "CN(CCF)[C@H]1CC[C@H](Oc2ncnc3sc4c(c23)[C@@H](CC(N)=O)CC4)CC1", "Result": "< 5 µM"}
{"Compound": "C=CC(=O)N1CCC[C@H](c2nc(-c3ccc(NC(=O)c4cccc(-c5cc(C#N)n(C)c5)n4)cc3)no2)C1", "Result": "> 10 µM"}
{"Compound": "C=CC(=O)N[C@H]1C[C@@H](C(=O)Nc2ccc(NC(=O)c3cccc(-c4ccn[nH]4)n3)nc2)CN(C)C1", "Result": "> 10 µM"}
{"Compound": "C/C(=N/O)c1cccc(-c2ccc3cnc(-c4cccc(C(F)(F)F)n4)n3c2)n1", "Result": "> 10 µM"}
{"Compound": "CC(O)([C@H](F)CNC(=O)c1cnc(Nc2ccc3ncsc3c2)cc1NC1CC1)C(F)(F)F (stereo partly shown)", "Result": "0.0043 µM"}

# input Query: IC50; subject: Cn1cc(-c2cccc(-c3ncc(-c4ccn(C)n4)c(NC4CC(CN)(CCl)C4)n3)c2)cn1 (stereo not shown)
# output < 0.1 µM

# input Query: IC50; subject: NC(=O)CC[C@H]1CCCc2sc3ncnc(O[C@H]4CC[C@H](N)CC4)c3c21
# output < 5 µM

----------
Below are pIC50 measurements against IRAK4 (Homo sapiens (Human)) drawn from the literature.
pIC50: −log10 of the molar value.

{"Compound": "CN(C)[C@H]1CC[C@H](Oc2ncnc3[nH]cc(C#N)c23)CC1", "pIC50": "5.00 to 6.00"}

# input Hello, I am looking for reported pIC50 with IRAK4 (Homo sapiens (Human)) for CCNC(=O)c1cc(Nc2nc(OC3CCOCC3)c3c(ccn3-c3cnn(C)c3)n2)cs1 . Could you help?
# output ≥ 7.00

# input Hello, I am looking for reported pIC50 with IRAK4 (Homo sapiens (Human)) for Oc1cncc(-c2ccc3ncnc(N[C@H]4CC[C@H](N5CCOCC5)CC4)c3c2)c1 . Could you help?
# output > 9.30

# input Hello, I am looking for reported pIC50 with IRAK4 (Homo sapiens (Human)) for Cc1cc(Nc2nc(NC3CCC(C)(O)C3)c3sccc3n2)sn1 (stereo not shown) . Could you help?
# output 6.00 to 7.00

----------
Below are IC50 measurements against IRAK4 (Homo sapiens (Human), UniProt Q9NWZ3) drawn from the literature.

Check out these entries, answers already filled in.
{"Compound": "COCCOc1cc(-c2cccc(C3(N)CCCC3)n2)cc2c1cnn2-c1cccc(CO)n1", "Assayed target": "IRAK4 (Homo sapiens (Human), UniProt Q9NWZ3)", "IC50": "< 100 nM"}
{"Compound": "CC[C@H](N)c1cccc(-c2ccc3cnn(-c4cncc(CO)n4)c3c2)n1", "Assayed target": "IRAK4 (Homo sapiens (Human), UniProt Q9NWZ3)", "IC50": "< 100 nM"}
{"Compound": "CNC(=O)c1ccc2sc3ncnc(N[C@H]4CC[C@H](N(C)C)CC4)c3c2c1", "Assayed target": "IRAK4 (Homo sapiens (Human), UniProt Q9NWZ3)", "IC50": "100 to 1000 nM"}
{"Compound": "CNc1cc(-c2ccc3ncnc(N[C@H]4CC[C@H](N5CCOCC5)CC4)c3c2)cnc1F", "Assayed target": "IRAK4 (Homo sapiens (Human), UniProt Q9NWZ3)", "IC50": "1 nM"}
{"Compound": "Cn1cc(-n2ccc3nc(Nc4cc(C(=O)NCCF)cs4)nc(OC4CCOCC4)c32)cn1", "Assayed target": "IRAK4 (Homo sapiens (Human), UniProt Q9NWZ3)", "IC50": "≤ 100 nM"}
{"Compound": "OCCn1cc(Nc2nc(N[C@H]3CC[C@H](N4CCOCC4)CC3)c3ncsc3n2)cn1", "Assayed target": "IRAK4 (Homo sapiens (Human), UniProt Q9NWZ3)", "IC50": "≤ 1000 nM"}
{"Compound": "Cn1cc(-n2ccc3nc(Nc4cnn(C5CCOCC5)c4)nc(O[C@H]4CCOC4)c32)cn1", "Assayed target": "IRAK4 (Homo sapiens (Human), UniProt Q9NWZ3)", "IC50": "≤ 100 nM"}
{"Compound": "CC(C)(O)[C@H](F)CNC(=O)c1cnc(-c2cnn3cc(Cl)cnc23)cc1NC12CC(C1)C2", "Assayed target": "IRAK4 (Homo sapiens (Human), UniProt Q9NWZ3)", "IC50": "2 nM"}
{"Compound": "CC(C)Nc1cc(-n2ncc3cc(C#N)cnc32)ncc1-n1cc(CC[C@](C)(O)CO)nn1", "Assayed target": "IRAK4 (Homo sapiens (Human), UniProt Q9NWZ3)", "IC50": "8 nM"}
{"Compound": "CN(C(=O)CCCc1cn(-c2ccccc2)c(NC(=O)c2cccc(-c3cnn(C)c3F)c2)n1)C1CC1", "Assayed target": "IRAK4 (Homo sapiens (Human), UniProt Q9NWZ3)", "IC50": "50 to 100 nM"}

# input Hello, I am looking for reported IC50 with IRAK4 (Homo sapiens (Human), UniProt Q9NWZ3) for CCC[C@H](N)c1cccc(-c2cc(C(CO)CCl)c3cnn(-c4cccc(CO)n4)c3c2)n1 (stereo partly drawn) . Could you help?
# output 100 to 1000 nM

# input Hello, I am looking for reported IC50 with IRAK4 (Homo sapiens (Human), UniProt Q9NWZ3) for CC1c2cccc(c2)C(=O)Nc2nc3ccccc3n2Cc2cccc(c2)-c2ccc(=O)n1n2 (stereo not drawn) . Could you help?
# output < 100 nM

----------
Below are IC50 measurements against UniProt:Q9NWZ3 drawn from the literature.

{"Compound": "Cn1cc(-c2cccc(-c3ncc(-c4cnn(C)c4)c(N[C@H]4CC[C@H](O)CC4)n3)c2)cn1", "IC50": "< 100 nM"}
{"Compound": "Cn1cc(-c2cccc(-c3ncc(-c4ccn(C)n4)c(NCC4CCCC(O)C4)n3)c2)cn1 (stereo not drawn)", "IC50": "100 to 1000 nM"}
{"Compound": "CCC[C@H](N)c1cccc(-c2cc(C3CCOCC3)c3cnn(-c4cccc(CO)n4)c3c2)n1", "IC50": "< 100 nM"}
{"Compound": "NC(=O)[C@H](O)C[C@H]1CCc2sc3ncnc(O[C@H]4CC[C@H](N)CC4)c3c21", "IC50": "< 5000 nM"}
{"Compound": "O=C1Nc2nc3ccccc3n2CC(O)c2cccc(c2)-c2ccc(=O)n(n2)Cc2cccc1c2 (stereo not drawn)", "IC50": "< 100 nM"}

# input Hello, I am looking for reported IC50 with UniProt:Q9NWZ3 for CNC(=O)C(N)c1cccc(-c2ccc3cnn(-c4cccc(CO)n4)c3c2)n1 (stereo not drawn) . Could you help?
# output 100 to 1000 nM

# input Hello, I am looking for reported IC50 with UniProt:Q9NWZ3 for CC[C@H](N)c1cccc(-c2cc(F)c3cnn(-c4cccc(CO)n4)c3c2)n1 . Could you help?
# output < 100 nM

# input Hello, I am looking for reported IC50 with UniProt:Q9NWZ3 for Cc1cc(Nc2nc(N(C)C3CCC(C)(O)CC3)c3sccc3n2)sn1 (stereo not drawn) . Could you help?
# output 1000 to 10000 nM
